Kindly state composite z-score for each of the entries shown.
- EXPERIMENTAL_TARGET: Torsin-1A (Homo sapiens)
- TEST_NAME: torsin A binders from cell lysate, primary screen, small-molecule microarray, wild-type, 635/667 nm (AID 1149)
- ASSAY_CONTEXT: COS7 hTOR1A-WT lysate, 635 nm fluorescence, higher = more signal
Answers are plain numbers.

Solved cases (5 shown):
[
  {
    "COMPOUND": "COCCOC(=O)N1C(=O)[C@@]2(c3cc(C#CCC(C(=O)OC)C(=O)OC)ccc31)[C@H](c1ccc(OCCO)cc1)N1[C@H](c3ccccc3)[C@H](c3ccccc3)OC(=O)[C@H]1[C@@H]2C(=O)Nc1nc2ccccc2s1",
    "NUMERIC_VALUE": 0.212
  },
  {
    "COMPOUND": "CCCCC(=C=CC[C@H](O)c1ccc(OCCO)cc1)C[C@H](O)COCc1ccccc1",
    "NUMERIC_VALUE": -0.327
  },
  {
    "COMPOUND": "C=CCC(OC(C)=O)[C@@H]1[C@@H](N(Cc2ccc(-c3cccc(C(F)(F)F)c3)o2)C(=O)c2cccc3ccccc23)c2cc(OCCCO)ccc2N1C(=O)Cc1ccc(OC)cc1 (stereo partly specified)",
    "NUMERIC_VALUE": -0.577
  },
  {
    "COMPOUND": "[N-]=[N+]=NCc1ccccc1C[C@]1(C(=O)N2CCOCC2)COC(c2ccc(OCCCO)cc2)=N1",
    "NUMERIC_VALUE": 1.71
  },
  {
    "COMPOUND": "COCCOC(=O)N1C(=O)[C@@]2(c3cc(C#CCCO)ccc31)[C@H](c1ccccc1OCCO)N1[C@H](c3ccccc3)[C@H](c3ccccc3)OC(=O)[C@H]1[C@@H]2C(=O)N1CCCCCCC1",
    "NUMERIC_VALUE": 1.22
  }
]

Please turn your attention to the following entry.
Noted composite z-score for "C=C(COC)/C(=C/C[C@H](OC(C)=O)c1cccc(OCCO)c1)c1cnc2ccccc2c1" , tested on Torsin-1A (Homo sapiens): 1.24
